Assay: Stability test: storage in stoppered vessels at 60° C. under a nitrogen atmosphere, content by HPLC
Assay type: physicochemical
Details: 10 days after the initiation of storage, based on initial content (100%)
property: Stability (Residual rate) (%)

molecule	Stability (Residual rate) [%]
CCCCCCCCCCCCCCCC(=O)Nc1ccn([C@@H]2O[C@H](CO)[C@@H](O)[C@@H]2C#N)c(=O)n1 [Crystal D]	98.3
CCCCCCCCCCCCCCCC(=O)Nc1ccn([C@@H]2O[C@H](CO)[C@@H](O)[C@@H]2C#N)c(=O)n1 [Crystal B]	100.3
CCCCCCCCCCCCCCCC(=O)Nc1ccn([C@@H]2O[C@H](CO)[C@@H](O)[C@@H]2C#N)c(=O)n1 [Crystal C]	100.4
CCCCCCCCCCCCCCCC(=O)Nc1ccn([C@@H]2O[C@H](CO)[C@@H](O)[C@@H]2C#N)c(=O)n1 [Amorphous A, reference compound]	78.6

###

Assay: Stability test: storage in stoppered vessels at 60° C. under a nitrogen atmosphere, content by HPLC
Format: physicochemical
Conditions: 5 days after the initiation of storage, based on initial content (100%)
property: Stability (Residual rate) (%)

compound	meas.value
CCCCCCCCCCCCCCCC(=O)Nc1ccn([C@@H]2O[C@H](CO)[C@@H](O)[C@@H]2C#N)c(=O)n1 [Crystal B]	101.0
CCCCCCCCCCCCCCCC(=O)Nc1ccn([C@@H]2O[C@H](CO)[C@@H](O)[C@@H]2C#N)c(=O)n1 [Crystal C]	101.0
CCCCCCCCCCCCCCCC(=O)Nc1ccn([C@@H]2O[C@H](CO)[C@@H](O)[C@@H]2C#N)c(=O)n1 [Crystal D]	99.9
CCCCCCCCCCCCCCCC(=O)Nc1ccn([C@@H]2O[C@H](CO)[C@@H](O)[C@@H]2C#N)c(=O)n1 [Amorphous A, reference compound]	92.7

###

Experiment: Stability test: storage in stoppered vessels at 60° C. under a nitrogen atmosphere, content by HPLC
Assay type: physicochemical
Settings: 17 days after the initiation of storage, based on initial content (100%)
property: Stability (Residual rate) (%)

A selection of reference data follows.
compound	Stability (Residual rate) (%)
CCCCCCCCCCCCCCCC(=O)Nc1ccn([C@@H]2O[C@H](CO)[C@@H](O)[C@@H]2C#N)c(=O)n1 [Crystal D]	98.4
CCCCCCCCCCCCCCCC(=O)Nc1ccn([C@@H]2O[C@H](CO)[C@@H](O)[C@@H]2C#N)c(=O)n1 [Crystal B]	100.4

[A] CCCCCCCCCCCCCCCC(=O)Nc1ccn([C@@H]2O[C@H](CO)[C@@H](O)[C@@H]2C#N)c(=O)n1 [Amorphous A, reference compound]
[B] CCCCCCCCCCCCCCCC(=O)Nc1ccn([C@@H]2O[C@H](CO)[C@@H](O)[C@@H]2C#N)c(=O)n1 [Crystal C]
Query :: Param pair: A , B . Output: the one whose Stability (Residual rate) is numerically greater. Please indicate the selected item by its label.
Result :: B
